System: Pyricularia oryzae
Type: in vivo
Stated conditions: rice blast; sprayed at 60 ppm active ingredient; lesions after 7 days
Property measured: Effect (class of control value)

Cc1ccc(C(=O)NCC(NC(=O)Oc2ccc3ccccc3c2)C(C)C)cc1 (stereo not drawn) [Formula (16), reference compound]: C (Less than 50%)
CSCC(C)OC(=O)NC(CNC(=O)c1ccc(C)cc1)C(C)C (stereo not drawn) [Formula (17), reference compound]: C (Less than 50%)
Cc1ccc(C(=O)NC(CNC(=O)OCC(F)(F)F)C(C)C)cc1 (stereo not drawn): A (Not less than 80%)
Cc1ccc(C(=O)NC(CNC(=O)OC(C(F)(F)F)C(F)(F)F)C(C)C)cc1 (stereo not drawn): A (Not less than 80%)
Cc1ccc(C(=O)NC(CNC(=O)OC2CCCCC2Cl)C(C)C)cc1 (stereo not drawn): A (Not less than 80%)

Okay, next one:
Prompt: Give the reported Effect (class of control value) for this compound. Cc1ccc(C(=O)NC(CNC(=O)OCC(Cl)(Cl)Cl)C(C)C)cc1 (stereo not drawn)
Response: A (Not less than 80%)
